test.target: DNMT3AC R882H (human, UniProt Q9Y6K1 612-912, R882H)
Sequence (Q9Y6K1 612-912 R882H): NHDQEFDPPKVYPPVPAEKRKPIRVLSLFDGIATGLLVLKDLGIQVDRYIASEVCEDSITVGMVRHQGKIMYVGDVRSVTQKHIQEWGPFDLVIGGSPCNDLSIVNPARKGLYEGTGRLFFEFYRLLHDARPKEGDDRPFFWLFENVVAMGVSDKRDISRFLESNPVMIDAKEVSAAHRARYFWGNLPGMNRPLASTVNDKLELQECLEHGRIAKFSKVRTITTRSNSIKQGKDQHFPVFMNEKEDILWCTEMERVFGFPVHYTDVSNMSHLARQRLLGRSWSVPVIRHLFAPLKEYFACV
assay.explanation: fluorescence anisotropy
readout.type: Kd (nM)
All answers are understood in nM, so give the number only.

# binder Cy5-labeled 29mer with two CpG sites (dsDNA) DNA 1: ACTTGCAACGGTCCTAACCGTCACCTCTT DNA 2: AAGAGGTGACGGTTAGGACCGTTGCAAGT ; its Kd = 209
